- Tested on: SNU-354
- experiment_description: Cytotoxicity against human SNU354 cells
- Format: functional, cell-based
endpoint_name: IC50 (µM)
Dear colleague, please return just the value in µM, with no unit written.

Give reported IC50 value for CC(C)[C@@H](C)/C=C/[C@@H](C)[C@H]1CC[C@@H]2[C@]1(C)CC[C@H]1[C@]23C=C[C@]2(C[C@@H](O)CC[C@]12C)OO3 [ERGOSTEROL PEROXIDE] 158

----------
- subject_of_test: Protein kinase C gamma type (Homo sapiens)
- experiment_description: Antagonist activity at protein kinase C gamma
endpoint_name: IC50

Output measured IC50 for this item: CCCCCCCCCCCCCCCC[C@@]1(OC)C=C[C@@H](CC(=O)OC)OO1 [CHONDRILLIN] > 364 µM

----------
- Tested on: KB
- experiment_description: Cytotoxicity against human KB cells
- Type: functional, cell-based
- conditions_used: Homo sapiens, KB; read-out: ED50 (the source's name)
The following molecules are shown together with reported EC50 values.
Field: numeric (µg/mL). Do not append units.

Look up and report measured EC50 (KB) for the following molecule: C=CC(CC[C@@H](C)[C@H]1CC[C@H]2[C@@H]3CC(=O)C4=CC(=O)CC[C@]4(C)[C@H]3CC[C@]12C)(OO)C(C)C (some centres undefined) 4

Enter measured EC50, system KB, for the molecule shown: C=C1C(=O)O[C@H]2[C@H]1[C@H](OC(C)=O)CC(=C)[C@H](OO)CC[C@@]1(C)O[C@H]21 [PEROXYFEROLIDE] 0.29

Fetch value of EC50 on KB for "C[C@H](C/C=C/C(C)(C)OO)[C@H]1CC[C@H]2[C@@H]3C[C@@H](O)C4=CC(=O)CC[C@]4(C)[C@H]3CC[C@]12C" . 0.4

Given "C[C@H](C/C=C/C(C)(C)OO)[C@H]1CC[C@H]2[C@@H]3CC(=O)C4=CC(=O)CC[C@]4(C)[C@H]3CC[C@]12C" , report its EC50 on KB. 1.15

----------
Entries and their measured EC50 follow.
- Tested on: HT-29
- experiment_description: Cytotoxicity against human HT29 cells
- Assay type: functional, cell-based
- conditions_used: Homo sapiens, HT-29; read-out: ED50 (the source's name)
Please state the figure in µg/mL; there is no need to write the unit.

Past entries and their recorded results:
compound	endpoint_name	observed_result
C=C(C)C(CC[C@@H](C)[C@H]1CC[C@H]2[C@@H]3C[C@@H](O)C4=CC(=O)CC[C@]4(C)[C@H]3CC[C@]12C)OO (stereo partly specified)	EC50	0.47
C=C(C)C(CC[C@@H](C)[C@H]1CC[C@H]2[C@@H]3CC(=O)C4=CC(=O)CC[C@]4(C)[C@H]3CC[C@]12C)OO (stereo partly specified)	EC50	1.48
C=C1CC[C@H](OO)C(=C)CCC2=C(C(C)C)C(=O)C[C@]2(C)CC1=O	EC50	0.31
C=C(C)C(CC[C@@H](C)[C@H]1CC[C@H]2[C@@H]3CC=C4C[C@@H](O)CC[C@]4(C)[C@H]3CC[C@]12C)OO (stereo partly specified)	EC50	0.43
C[C@H](C/C=C/C(C)(C)OO)[C@H]1CC[C@H]2[C@@H]3CC=C4C[C@@H](O)CC[C@]4(C)[C@H]3CC[C@]12C	EC50	1.27

// below: EC50 requested for another compound
State, for HT-29, measured EC50 of the compound listed here: C=CC(CC[C@@H](C)[C@H]1CC[C@H]2[C@@H]3CC(=O)C4=CC(=O)CC[C@]4(C)[C@H]3CC[C@]12C)(OO)C(C)C (stereo partly specified) 1.4
